# Tested on: Plasmodium falciparum
# Protocol Description: GSK_TCMDC: Inhibition of Plasmodium falciparum 3D7 in whole red blood cells, using parasite LDH activity as an index of growth. Test compounds present at 2uM
# Type: functional
Catalogue of Inhibition readings, one per entry.
Property Name: Inhibition (%)

1. COc1ccc(NC(=O)[C@H](Cc2ccccc2)Nc2cc(C)nc(NCCc3ccccc3)n2)cc1.O=C(O)C(F)(F)F    98
2. O=c1cc(NCCCNCc2ccc3c(c2)OC(F)(F)O3)[nH]c2ccccc12    100
3. Cc1cc(N[C@@H](CC(C)C)C(=O)NCc2cccc(F)c2)nc(NCCc2ccc(F)cc2)n1.O=C(O)C(F)(F)F    90
4. COc1cccc(C(=O)Nc2ccc(S(=O)(=O)c3cc4c(cc3OC)CCN(C)CC4)cc2)c1    86
5. CN(C)CCC1CCN(CCS(=O)(=O)c2cccc(Nc3ccc(-c4ccsc4)cn3)c2)CC1    97
6. CCC(CN1C(=O)C(c2ccccc2)(c2ccccc2)N=C1N)c1ccccc1.O=CO (centres undefined)    98
7. Cc1ccc(-c2nc(Nc3ccncc3)c3ccccc3n2)s1    95
8. Clc1ccc(CNc2ccnc(NCc3cccnc3N3CCCC3)n2)c(Cl)c1    85
9. O=C(NC1CCN(c2ccnc3ccccc23)C1)c1cccc(C(F)(F)F)c1.O=C(O)C(F)(F)F (centres undefined)    94
10. CCCCN(Cc1cccc(C(F)(F)F)c1Cl)c1ccc(C(O)(C(F)(F)F)C(F)(F)F)cc1.O=C(O)C(F)(F)F    91
11. O=C(/C=C/c1ccc(Cl)c(Cl)c1)NCCCCCN1CC[C@H](NC(=O)Nc2ccc(Oc3ccccc3)cc2)C1    100
12. COc1ccc(-c2ccc(CNCc3ccccc3)cc2)cc1S(=O)(=O)NCCN1CCCC1.O=C(O)C(F)(F)F    100
13. CCCCSc1nc2c(c(=O)n1Cc1ccco1)C1(CCCCC1)Cc1ccccc1-2    96
14. COc1ccc(Cl)cc1N1CCN(CCCNC(=O)c2ccc(-c3nc4cc(Cl)c(F)cc4[nH]3)c(F)c2)CC1    100
15. O=C(Nc1ccc2ccccc2c1)N(CCCn1ccnc1)Cc1csc(-c2ccc(CNCc3ccccc3)cc2)n1.O=C(O)C(F)(F)F    99
16. Cc1cc(NC(=O)Nc2ccc(I)c(OCCN(C)C)c2)ccc1Br.Cl    100
17. CCc1c(CCNCCCCCCNCCc2ccc(OC)cc2)ccc(OC)c1OC.Cl    98
18. N#Cc1cccc(C(=O)Nc2ccc(-c3cccc(CN4CCC(O)CC4)c3)cc2)c1.O=C(O)C(F)(F)F    100
19. Cc1cc(=NN=CC=Cc2ccccc2)c2ccccc2[nH]1    100

----------
# Tested on: HepG2
# Protocol Description: GSK_TCMDC: Percent inhibition of human HepG2 cell line. Test compounds present at 10uM.
# Type: functional
Response field class: enum, chosen by comparing Inhibition against bin 0: < 10%; bin 1: ≥ 10% and < 30%; bin 2: ≥ 30%

1) CNc1nc(N/N=C/c2cc([N+](=O)[O-])c(Cl)cc2Cl)nc(Nc2cccc(C(F)(F)F)c2)n1    bin 1
2) CC(C)CNC(=S)N1CCCN(c2nc3ccc(Cl)cc3s2)CC1    bin 1
3) CN1CCN(c2ccnc3ccc(NC(=O)Cc4ccc(Br)c5ccccc45)cc23)CC1    bin 0
4) COc1ccc2c(OC)c(CNCCCCCCNCc3ccc4cc(OC)ccc4c3OC)ccc2c1.CS(=O)(=O)O    bin 2
5) CCCC(CNCc1ccccc1)CNc1cc(=O)c2ccccc2[nH]1 (centres undefined)    bin 0
6) CN(C)CCOc1cc(NC(=O)c2ccc(-c3ccc(Cl)cc3Cl)cc2)ccc1-c1ccccc1    bin 2
7) O=C(NC1CCCc2ccccc21)C1CCCN(C(=O)c2ccc(O)c(-c3ccc(Cl)c(Cl)c3)c2)C1 (centres undefined)    bin 0
8) Cc1cccc2nc(-c3cccc(-c4cccc(CNCC5CCCO5)c4)c3)[nH]c12.O=C(O)C(F)(F)F (centres undefined)    bin 1
9) CC1CN(Cc2cccc(F)c2)CCN1c1ccc(NC(=O)c2ccc(F)cc2)cc1.O=C(O)C(F)(F)F (centres undefined)    bin 0
10) Cc1ccc(NC(=O)c2cccc(CN3CCCN(Cc4cccc(O)c4)CC3)c2)cc1.O=C(O)C(F)(F)F    bin 1
11) CC(C)(C)c1ccc(NC(=O)c2cccc(CN3CCCN(Cc4cccc(Cl)c4)CC3)c2)cc1.O=C(O)C(F)(F)F    bin 2
12) CN(C)CC1c2[nH]c3ccccc3c2CCN1C(=O)Nc1ccc(Cl)c(Cl)c1.Cl (centres undefined)    bin 2
13) Cc1ccc(NC(=O)N2CCCN(CCCCCNC(=O)/C=C/c3ccc(Cl)c(Cl)c3)CC2)cc1    bin 1
14) Cc1cc(NC2CCCC2)nc(Nc2ccc(F)cc2)n1    bin 1
15) CCN1CCN(c2ccc(NC(=O)c3cc4c(C)nn(-c5ccccc5)c4s3)cc2C)CC1    bin 2
16) CC(=O)Nc1ccc(OCCCCN(Cc2ccccc2C(F)(F)F)c2ccc(C(F)(F)F)c(C#N)c2)c(Cl)c1    bin 1
17) Cc1nc(-c2cccc3c(NC(=O)Nc4ccc5nccc(N6CCN(C)CC6)c5c4)cccc23)no1.Cl    bin 0
18) Fc1ccc(C(OCC2CCCN(Cc3cccc4cccnc34)C2)c2ccc(F)cc2)cc1 (centres undefined)    bin 1
19) NCCCCNc1cc(-c2ccnc(Nc3cccc(Cl)c3)n2)ccn1    bin 2

----------
# Tested on: HepG2
# Protocol Description: GSK_TCMDC: Percent inhibition of human HepG2 cell line. Test compounds present at 10uM.
# Assay type: functional
Exam item: assign fulfilled to entries whose Inhibition is below 8% and not fulfilled to entries at or above 8%. Note that a value of exactly 8% receives not fulfilled.

1) Cc1ccccc1Nc1nc(Nc2ccccc2)c2ccccc2n1.Cl    not fulfilled
2) Cc1cc(Cl)c(Cl)cc1NC(=O)Nc1cccc(C(F)(F)F)c1    fulfilled
3) Cc1cc(-c2cccc(CNC3CCN(C)CC3)c2)ccc1S(=O)(=O)NCc1ccccc1.O=C(O)C(F)(F)F    not fulfilled
4) CCCCCCCN(Cc1ccc(OC(C)(C)C(=O)OCC)cc1)C(=O)Nc1ccccc1OCC    fulfilled
5) CNC(=O)C1Cc2c([nH]c3cc(Br)ccc23)C2(CCN(CCc3ccccc3)CC2)N1 (stereo not given)    not fulfilled
6) Cc1ccc(CNC(=O)c2cc3c(=O)n4ccccc4nc3n(CCCN3CCOCC3)c2=N)cc1    not fulfilled
7) COc1ccc(NC(=O)[C@H](CC(C)C)Nc2cc(C)nc(NCCOc3ccccc3)n2)cc1.O=C(O)C(F)(F)F    fulfilled
8) Nc1nccc2ccc(OC3CCCCC3)cc12.O=CO    not fulfilled
9) CN(C)CCC(O)C=C(c1ccc(Cl)cc1)c1ccc(Cl)cc1 (stereo not given)    not fulfilled

----------
Measured Inhibition of individual entries
# System: Plasmodium falciparum
# Protocol Description: GSK_TCMDC: Inhibition of Plasmodium falciparum 3D7 in whole red blood cells, using parasite LDH activity as an index of growth. Test compounds present at 2uM
# Assay type: functional
Property Name: Inhibition (%)

1. Cc1nc(C)c(-c2ccc(Cl)cc2)c(O)c1I    93
2. COc1ccc(CC2(c3ccc(F)cc3)N=C(N)N(CCCc3ccccc3)C2=O)cc1.O=C(O)C(F)(F)F (stereo unspecified)    99
3. O=C(O)c1ccc(OCOCOc2ccc(C(=O)O)c(O)c2)cc1O    99
4. Nc1ccc(-c2ccc3ccnc(N)c3c2)cc1    100
5. COc1ccc(C(=O)Nc2cc(Br)c3c(c2)CNCC3)cc1Br.Cl    97
6. Cc1ccc(O)c(-c2cc(C(=O)Nc3ccc(S(=O)(=O)N4CCCCCC4)cc3)[nH]n2)c1    100

----------
# Test system: Plasmodium falciparum
# Protocol Description: GSK_TCMDC: Inhibition of Plasmodium falciparum 3D7 in whole red blood cells, using parasite LDH activity as an index of growth. Test compounds present at 2uM
# Format: functional
Quick reference: Inhibition of the listed items.
Property Name: Inhibition

1. Cc1noc(C)c1-c1ccc(C(=C2CCCCCCC2)c2ccc(O)cc2)cc1    83%
2. O=[N+]([O-])c1cccc(Nc2cncc(-c3ccc(CO)cc3)c2)c1    85%
3. CCCCCN1CCCC(CNS(=O)(=O)c2cccc(C(=O)Nc3ccc(C(F)(F)F)cc3)c2)C1.O=C(O)C(F)(F)F (configuration not stated)    96%
4. Cc1c(Cc2ccccc2Br)cnc2nc(N)nc(N)c12.Cl    88%
5. CCCN(Cc1nnc(-c2ccco2)o1)C(=O)C1CCCN(C(=O)c2ccc(Cl)cc2)C1 (configuration not stated)    96%
6. Cc1c(C)n(C2CCCC2)c2ncnc(OC3CCN(CC(=O)NCC4CC4)CC3)c12    89%
7. CC(=O)N[C@@H]1c2cc(C(C)=O)ccc2OC(C)(C)[C@@H]1O    97%
8. Cn1cnc2c(Nc3ccncc3)nc(-c3ccc4c(c3)OCO4)nc21.O=C(O)C(F)(F)F    96%
9. CCCCCN1CCCC(NS(=O)(=O)c2cccc(C(=O)Nc3cccc(C(F)(F)F)c3)c2)C1.O=C(O)C(F)(F)F (configuration not stated)    86%
10. CCCc1cc(N2CCC(N(CC)CC)C2)nc(Nc2ccc(OC)cc2)n1 (configuration not stated)    90%
11. Cc1ccc2nc(C)cc(NC(=O)Nc3ccc(N(C)C)cc3)c2c1    100%
12. Fc1ccc2nc(Nc3nc(-c4ccccn4)cs3)sc2c1    100%
13. COc1ccc(CNC2CCN(C)CC2)cc1-c1ccc(S(=O)(=O)NCCc2ccccn2)cc1.O=C(O)C(F)(F)F    93%
14. COc1ccc2ncc(C#N)c(CCN3CCC(NCc4ccc5c(n4)NC(=O)CS5)CC3)c2n1.Cl    89%
15. COc1ccc(CCN2CC[C@H](Nc3nc(-c4ccc(F)c(F)c4)nc4ccccc34)C2)cc1S(N)(=O)=O.Cl    99%
16. O=C(Nc1cccc(-c2ccc(-c3nc4cc(C(F)(F)F)ccc4[nH]3)s2)c1)c1ccncc1    99%
17. O=C(O)C(F)(F)F.c1cc(-c2ccc(CNC3CCOCC3)cc2)cc(-c2nc3ccccc3[nH]2)c1    100%
18. CN1CCN(c2ncnc3ccc(NC(=O)Nc4ccc(Cl)c(Cl)c4)cc23)CC1    100%
19. CCNc1cc(C(=O)N[C@@H](Cc2ccccc2)[C@H](O)CNC2CCC(F)(F)CC2)c(F)c(N2CCCCS2(=O)=O)c1.O=CO    100%
20. Cc1cc(-c2cccc3c(C(=O)N4CCc5cc6nccc(N7CCCN(C)CC7)c6cc54)cccc23)cc(C)n1.Cl    100%
21. Fc1ccc2[nH]ccc(=NN=CC=Cc3ccccc3)c2c1    96%
22. COc1cccc(OC(C)(C)c2nc(N[C@@H](C)c3ccccc3)c3cn[nH]c3n2)c1    89%
23. CCNc1cc(C(=O)N[C@@H](Cc2ccccc2)[C@H](O)CNC23CCC(CC2)CC3)cc(N2CCCCS2(=O)=O)c1.Cl    99%
24. O=C(/C=C/c1ccc(Cl)c(Cl)c1)NCCCCCN1CCCC(CNC(=O)Nc2ccc(C(F)(F)F)cc2)C1 (configuration not stated)    100%
25. O=C(Nc1cccc(-c2csc(-c3nc4ccccc4[nH]3)c2)c1)c1cccnc1    98%
26. O=C(Nc1nc2cc(S(=O)(=O)NCc3ccc(Cl)c(Cl)c3)ccc2n1CCCn1ccnc1)c1ccc(Cl)cc1.O=C(O)C(F)(F)F    100%
27. COc1ccc(-c2cccc(NC(=O)c3cccc(Cl)c3)c2)cc1CN(C)CCN(C)C.O=C(O)C(F)(F)F    100%
28. COc1cccc(C(=O)NCCc2cccc(Cl)c2)c1OCc1ccccc1    85%
29. O=[N+]([O-])c1cccc(-c2ccc(C=NNc3cc(N4CCCC4)nc(N4CCCC4)n3)o2)c1    100%
30. COc1ccc2ncc(F)c(CCN3CCC(NCc4cc(C)c5c(c4)OCCO5)CC3)c2n1.Cl    100%
31. O=C(C1COc2ccccc2O1)N(CCCn1ccnc1)Cc1csc(-c2ccc(CNCc3ccccc3)cc2)n1.O=C(O)C(F)(F)F (configuration not stated)    100%
32. O=C(NCCc1ccccc1)N(Cc1cccc(-c2ccc(CNCCc3ccccc3)cc2)c1)C1CCN(Cc2ccccc2)CC1.O=C(O)C(F)(F)F    90%
33. Cc1cccc(N2C(N)=NC(N)=NC2(C)C)c1C.Cl    90%
34. COc1cc2c(cc1OCCN1CCC(N3CCCC3)CC1)N(C(=O)/C=C/c1ccccc1Cl)CC2.Cl    100%
35. CN(N=Cc1ccccc1)C(=N)NCCCC#Cc1cccc(CN2CCCC2)c1    89%
36. Cc1cc(Cl)c(S(=O)(=O)NC(C)(C)C)cc1OCC(=O)NC1CCCCC1    93%
37. CCOc1ccc2c(=NN=Cc3cccc(F)c3)cc(C)[nH]c2c1    100%
